- Tested on: HEK293T
- procedureDetails: median enrichment of reporter reads in eGFP-reduced (low/intermediate) vs eGFP-high sorted cells (eGFP-extension fusion abundance) (ratio); higher = stronger loss of eGFP-fusion protein abundance (more destabilising extension)
Is median enrichment at least 7? Then T. If not, F.

Solved entries (count: 10):
substance | categoryLabel
QFDNKAEGLSSNMVAFF [ACSM4] | F
LRLQCLLRRKIKFTSSKVTLEDRALGMSFFF [OR2C3] | F
AESLGSDLAAWGESLGSVLAAWGAGIAQSMNGPTPAKAESLGPVSPAAHGTGIAHGVRSVHLQGLRPWAQSALLLRVQALHMV [WNT9A] | T
WRPAPARMGGGVERRTPIG [NSG2] | F
GTQSSLLAVDFPLLLEPPIKEIQRDSCRPEAEHTFMAGALRGVLDPAPGDTIHFYCFVVTRALQPVFLKNQGPLPPPLPWGET [PLOD1] | F
QATPAWPRSQDTGQGRPGPEELGAGPQT [APBA2] | F
LPHHTPDHQESQGCCFATHQHRFAQKLCPRLGRSYFKKTWFSWSRWLTPVIPALWEAKPDGS [COG7] | T
QTTFPKENIRGFHC [CPVL] | F
YNIYKLWVLDGLS [RBM41] | F
RGWDPLLKLVASAGLGAAPQRLQLIC [FES] | T

Q) hey, is median enrichment for this one >= 7? EEEEEE [Glu06]
A) F

Q) hey, is median enrichment for this one >= 7? SLKPITVLTAQWN [KCNA2]
A) T

###

- System: HEK293T
- procedureDetails: median enrichment of reporter reads in eGFP-reduced (low/intermediate) vs eGFP-high sorted cells (eGFP-extension fusion abundance) (ratio); higher = stronger loss of eGFP-fusion protein abundance (more destabilising extension)
// values below are reported median enrichment

Some sequences with recorded median enrichment:
primarySequence | systemName | median enrichment
LGEMSLSFLLPF [C10orf82] | HEK293T | 3.93
ETLNILSLIFN [POLK] | HEK293T | 8.07

We now examine a further sequence.
Q) Which median enrichment reading was recorded for the sequence QAAVAPGDVCFIVPFFLLV [CCNB2] ?
A) 8.22

###

- Tested on: HEK293T;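 note: lentiviral eGFP-IRES-mCherry reporter pool sorted by FACS 96 h post-transduction, gated on mCherry-high cells, Illumina read counts normalized per million, median across four biological replicates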
- procedureDetails: median enrichment of reporter reads in eGFP-reduced (low/intermediate) vs eGFP-high sorted cells (eGFP-extension fusion abundance) (ratio); higher = stronger loss of eGFP-fusion protein abundance (more destabilising extension)
// values below are reported median enrichment
// no unit string in output, number only

primarySequence | testResult
WSSSSNSICKEHFSLKTCIWIIIITTF [CCDC148] | 3.42

Q) Which median enrichment reading was recorded for the sequence VSSFLLVFFILFSFHQPSCILALQRDRDRSSAQGFSLPLFIMGGGYHPPSQSCEESGTSFFPTSLFPHSFLSPSGLSFPYTLT [NOTCH3] ?
A) 5.94

Q) Which median enrichment reading was recorded for the sequence SAMVSRAPHTRVYTRTMWYVARPGPGVRLGQPQLSLPLLLIQGVTRHLSLCYFWPQQEPVLGYFCPCSSQPNSGLAHPSPPPK [KCNJ11] ?
A) 5.63

Q) Which median enrichment reading was recorded for the sequence YKKRLLLGLDR [Degron FEM1B] ?
A) 9.09

Q) Which median enrichment reading was recorded for the sequence CLSLPSSWDYSHTPPHLDNFVFLVETGFHYVGQAGLKLLSSGDPSASASQNAGITSVSHYTWFFFPLFANSHGVFWHHFQHYF [RBP1] ?
A) 8.27

Q) Which median enrichment reading was recorded for the sequence WCWKRSKHWPLVSTLQPPQVPLWGDTGGPLAVTPCAWSDPRPLPPARFLLSPAWEDVSLSTSQRARGARGWTGQ [PPP2R1A] ?
A) 3.49

Q) Which median enrichment reading was recorded for the sequence LEKPQVLLRLLSLPCQVSPVLTIQLGSTPFALLPCHTVLCLLFQVGMIMPSPANILQGPPNLIAGHSQPSESESRFLLSLPSS [PGLYRP4] ?
A) 7.65

Q) Which median enrichment reading was recorded for the sequence RALLAPAFHALPIPPPPPPPPATEGRPEPPSLPSPLGGRGGHWKGGTPPPQQLRRGFWN [TOMM40] ?
A) 0.777

Q) Which median enrichment reading was recorded for the sequence LASDLPNDLLLAQLDARQARLSLC [BNC2] ?
A) 4.33

Q) Which median enrichment reading was recorded for the sequence CPLSATHVVPSLPSFHLDVPPSPTSAPLLPRLDLKPELPLNLEYATYNMQAAKHPFCTRRLEWNCHVQ [PRR20A] ?
A) 5.57

Q) Which median enrichment reading was recorded for the sequence WGEKPQKGKLQTSWETCAKDFAD [CXCL14] ?
A) 0.277

Q) Which median enrichment reading was recorded for the sequence FLELKHPRMPLHVFHSPHLQTSLLFLTRPESKLPSLGNSGEGVSCTTYHTPSHPVSDFGMDSGKLGPSLNRVMYLNVCYFQPP [HSPA1L] ?
A) 6.57

Q) Which median enrichment reading was recorded for the sequence PPPPPPPP [Pro08] ?
A) 1.83

Q) Which median enrichment reading was recorded for the sequence YAQLAICKVTSAKFSFGSYPRAPMSSYQEVINVTPFHRLKGVITLLLG [PAFAH2] ?
A) 4.37

Q) Which median enrichment reading was recorded for the sequence LKKKKQQVMELHILVTQWTIIGSHWKSGKNPWRLSFSDILPNALLSRIFVSFCLIFWGVFVVVGLFFVFFF [PPP1R12A] ?
A) 5.8

Q) Which median enrichment reading was recorded for the sequence SPSASSRKNKKSRTWQVFSICCKYVY [FBXL13] ?
A) 8.34

Q) Which median enrichment reading was recorded for the sequence PKWNHLTSAAPDLPGRMPLPLPSSNPQTRTPFLPPQAGPAPGVGSALSTPRAPRPSEGAPAGASDTLQFRAVGGLGHIPVPWL [SECTM1] ?
A) 1.79

Q) Which median enrichment reading was recorded for the sequence YLISYYIF [PCDHB8] ?
A) 5

Q) Which median enrichment reading was recorded for the sequence EGTLQSLFHIFKPH [HMCN1] ?
A) 7.78

Q) Which median enrichment reading was recorded for the sequence QLGPAWKASAPCTHTDRNFRDCGVETGAQALQRVALKL [RAB36] ?
A) 7.77
